- test_protocol: Approximate solubility by manual dilution combined with visual observation
- Format: physicochemical
- condition_set: organic solvent or mixture, thermodynamic from solid; Dichloromethane, room temperature; read-out: Solubility
readout_name: solubility

Request: Need solubility of COc1cccc(-c2cc(F)c(Nc3ncccc3C(=O)O)c(F)c2)c1 , thanks.
Result: < 600 µg/mL

* * *

- test_protocol: Approximate solubility by manual dilution combined with visual observation
- Type: physicochemical
- condition_set: organic solvent or mixture, thermodynamic from solid; Toluene, room temperature; read-out: Solubility
- Protocol: The approximate solubility was tested at room temperature by manual dilution combined with visual observation. The solubility of material in different single and mixed solvents was determined at the concentration once no particles of farudodstat could be visually observed in solvents.
readout_name: solubility

Request: What measured solubility goes with COc1cccc(-c2cc(F)c(Nc3ncccc3C(=O)O)c(F)c2)c1 ?
Result: < 530 µg/mL

* * *

- test_protocol: Approximate solubility by manual dilution combined with visual observation
- Type: physicochemical
- condition_set: organic solvent or mixture, thermodynamic from solid; Acetone:Dichloromethane (3:1), room temperature; read-out: Solubility
readout_name: solubility

Request: # solubility lookup, item COc1cccc(-c2cc(F)c(Nc3ncccc3C(=O)O)c(F)c2)c1 [farudodstat DSP polymorph]
Result: < 1900 µg/mL

* * *

- test_protocol: Approximate solubility by manual dilution combined with visual observation
- Format: physicochemical
- condition_set: thermodynamic from solid; Water, room temperature; read-out: Solubility
readout_name: solubility

Request: Find the recorded solubility belonging to COc1cccc(-c2cc(F)c(Nc3ncccc3C(=O)O)c(F)c2)c1 [farudodstat DSP polymorph] and report it.
Result: < 530 µg/mL

* * *

- test_protocol: Approximate solubility by manual dilution combined with visual observation
- Type: physicochemical
- condition_set: organic solvent or mixture, thermodynamic from solid; Acetone:Dichloromethane (1:1), room temperature; read-out: Solubility
readout_name: solubility

Request: Suppose we examine the compound COc1cccc(-c2cc(F)c(Nc3ncccc3C(=O)O)c(F)c2)c1 ; what solubility value has been reported?
Result: < 1580 µg/mL

* * *

- test_protocol: Approximate solubility by manual dilution combined with visual observation
- Format: physicochemical
- condition_set: organic solvent or mixture, thermodynamic from solid; some solvents, room temperature; read-out: High solubility
readout_name: solubility

Request: Fill in: solubility of COc1cccc(-c2cc(F)c(Nc3ncccc3C(=O)O)c(F)c2)c1 is ___
Result: > 100 mg/mL

* * *

- test_protocol: Approximate solubility by manual dilution combined with visual observation
- Format: physicochemical
- condition_set: organic solvent or mixture, thermodynamic from solid; Cyclohexane, room temperature; read-out: Solubility
readout_name: solubility

Request: Suppose we examine the compound COc1cccc(-c2cc(F)c(Nc3ncccc3C(=O)O)c(F)c2)c1 [farudodstat DSP polymorph] ; what solubility value has been reported?
Result: < 490 µg/mL

* * *

- test_protocol: Approximate solubility by manual dilution combined with visual observation
- Type: physicochemical
- condition_set: organic solvent or mixture, thermodynamic from solid; Heptane, room temperature; read-out: Solubility
readout_name: solubility

Request: Field request: solubility | item: COc1cccc(-c2cc(F)c(Nc3ncccc3C(=O)O)c(F)c2)c1
Result: < 810 µg/mL

* * *

- test_protocol: Approximate solubility by manual dilution combined with visual observation
- Format: physicochemical
- condition_set: organic solvent or mixture, thermodynamic from solid; CHCl3, room temperature; read-out: Solubility
readout_name: solubility

Request: Find the recorded solubility belonging to COc1cccc(-c2cc(F)c(Nc3ncccc3C(=O)O)c(F)c2)c1 [farudodstat DSP polymorph] and report it.
Result: < 0.57 mg/mL
